- target: IDO1 (Homo sapiens, UniProt P14902)
- Sequence (P14902 whole entry): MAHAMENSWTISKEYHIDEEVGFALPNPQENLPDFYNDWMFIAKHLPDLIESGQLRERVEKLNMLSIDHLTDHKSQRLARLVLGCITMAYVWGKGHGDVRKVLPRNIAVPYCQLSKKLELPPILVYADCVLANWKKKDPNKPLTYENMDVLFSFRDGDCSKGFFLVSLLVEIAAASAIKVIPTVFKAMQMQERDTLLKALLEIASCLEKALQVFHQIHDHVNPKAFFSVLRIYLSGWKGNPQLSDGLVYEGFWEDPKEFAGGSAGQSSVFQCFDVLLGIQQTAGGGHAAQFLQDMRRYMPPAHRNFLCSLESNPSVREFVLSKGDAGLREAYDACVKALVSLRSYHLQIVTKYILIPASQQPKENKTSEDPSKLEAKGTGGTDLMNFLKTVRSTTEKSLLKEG
- measurement_description: IDO1 Cellular Assay in HeLa Cells Stimulated with IFNγ
- Format: cell-based
- test_parameters: read-out: HeLa Cell Potency, IC50
experimental_endpoint: IC50 (nM)
Numbers only; they are read as nM.

Name the recorded IC50 for `Cc1cccc(N2CCN(C(=O)Cn3nc(C(=O)N4CCC(O)(CN)CC4)c4c3C[C@H]3C[C@@H]43)CC2)c1C` .
8.43

What value of measured IC50 is listed for Cc1cccc(N2CCN(C(=O)Cn3nc(C(=O)N4CCCC(CO)C4)c4c3CCC4)CC2)c1C (stereo not shown) ?
2.84

Report IC50 for `Cc1c(F)cccc1N1CCN(C(=O)Cn2nc(C(=O)N3CCC(OCCO)CC3)c3c2CCC3)CC1` please.
21.4

Record request: IC50 value, item `Cc1c(N2CCN(C(=O)Cn3nc(C(=O)N4CCO[C@@H](CO)C4)c4c3C[C@H]3C[C@@H]43)CC2)cccc1C(F)(F)F`
1.91

###

- target: IDO1 (Homo sapiens, UniProt P14902)
- measurement_description: IDO1 Cellular Assay in HeLa Cells Stimulated with IFNγ
- Assay type: cell-based
- test_parameters: read-out: HeLa Cell Potency, IC50
- Protocol: IDO1 Cellular Assay in HeLa Cells Stimulated with IFNγ HeLa cells were cultured in complete HeLa culture medium (90% EMEM, 10% heat-inactivated fetal bovine serum) and expanded to about 1×10^9 cells. […] Frozen HeLa cells were thawed and transferred into HeLa assay medium (99% complete HeLa culture medium, 1% Pen/Strep) with 20 mL medium/vial of cells. […] The cells were then counted and adjusted to a density of 2×10^5 cells/mL in HeLa assay medium. […]
Answer each item with its documented pIC50.
Hey, just a heads up that pIC50 is the negative log base 10 of the concentration in molar.

Could you tell me which pIC50 is on file for Cc1cccc(N2CCN(C(=O)Cn3nc(C(=O)N4CCOC(CO)C4)c4c3CCC4)CC2)c1C (stereo not drawn) [Example 156] ?
7.53

I am curious: what pIC50 value has been reported for Cc1c(C(F)F)cccc1N1CCN(C(=O)Cn2nc(C(=O)N3CCO[C@H](CO)C3)c3c2C[C@H]2C[C@@H]32)CC1 [Example 349] ?
8.35

Could you tell me which pIC50 is on file for Cc1cccc(N2CCN(C(=O)Cn3nc(C(=O)N4CCC(C)(CN)CC4)c4c3CCC4)CC2)c1C [Example 179] ?
7.08

Using the record for Cc1cccc(N2CCN(C(=O)Cn3nc(C(=O)N4CC[C@H](O)[C@H](F)C4)c4c3C[C@H]3C[C@@H]43)C3(CC3)C2)c1C [Example 364] , report its pIC50.
8.83

// returns reported pIC50 for input Cc1c(F)cccc1N1CCN(C(=O)Cn2nc(C(=O)N3CC[C@H](O)[C@H](F)C3)c3c2CCC3)CC1 [Example 486]
6.89

I would be grateful if you could share the reported pIC50 for Cc1cccc(N2CCN(C(=O)Cn3nc(C(=O)N4CCC(N5CCNC5=O)CC4)c4c3CCC4)CC2)c1C [Example 130] .
8.45

Look up pIC50 for this molecule: Cc1cccc(N2CCN(C(=O)Cn3nc(C(=O)N4CCC(O)CC4(C)C)c4c3CCC4)CC2)c1C (stereo not drawn) [Example 119]
7.48

Which measured pIC50 value corresponds to Cc1cccc(N2CCN(C(=O)Cn3nc(C(=O)N4CCOCC4CO)c4c3C[C@H]3C[C@@H]43)CC2)c1C (stereo partly drawn) [Example 267] ?
8.10

For the molecule Cc1cccc(N2CCN(C(=O)Cn3nc(C(=O)N4CCC(C)(O)CC4)c4c3CCC4)CC2)c1C [Example 82] , what pIC50 is on record?
8.56

Please look up its pIC50: Cc1cccc(N2CCN(C(=O)Cn3nc(C(=O)N4CCC(CN)CC4)c4c3CCC4)CC2)c1C [Example 180]
7.94

Please report the recorded pIC50 for Cc1cccc(N2CCN(C(=O)C(C)n3nc(C(=O)N4CCC(O)CC4)c4c3CCC4)CC2)c1C (single isomer, unassigned) [Example 489] .
6.41

Field request: pIC50 | item: Cc1cccc(N2CCN(C(=O)Cn3nc(C(=O)N4CC[C@H](CO)C4)c4c3C[C@H]3C[C@@H]43)CC2)c1C [Example 251]
9.03

Which value of pIC50 has been reported for Cc1cccc(N2CCN(C(=O)Cn3nc(C(=O)N4CCC(CCO)C4)c4c3CCC4)CC2)c1C (stereo not drawn) [Example 154] in the records?
8.52

// query pIC50 value for entry O=C(Cn1nc(C(=O)N2CC[C@H](O)[C@H](F)C2)c2c1CCC2)N1CCN(C2CCc3ccccc32)CC1 (single isomer, unassigned) [Example 439]
6.77

# lookup: pIC50 of Cc1cccc(N2CCN(C(=O)Cn3nc(C(=O)N4CC[C@@H](C(C)(C)O)C4)c4c3C[C@H]3C[C@@H]43)CC2)c1C [Example 230]
8.95

Quick one: pIC50 for CN[C@H]1CCCN(C(=O)c2nn(CC(=O)N3CCN(c4cccc(C)c4C)CC3)c3c2[C@@H]2C[C@@H]2C3)C1 [Example 241] ?
6.79

Report pIC50 for Cc1cccc(N2CCN(C(=O)Cn3nc(C(=O)N4CCC(O)CC4)c4c3C[C@H]3C[C@@H]43)[C@@H](C)C2)c1C [Example 334] please.
8.86

# query: pIC50 of entry Cc1cccc(N2CCN(C(=O)Cn3nc(C(=O)N4CCN(C(C)C)CC4)c4c3CCC4)CC2)c1C [Example 159]
7.60

Returns the measured pIC50 for the input molecule. Input: Cc1cccc(N2CCN(C(=O)Cn3nc(C(=O)N4CCC(O)(CF)CC4)c4c3C[C@H]3C[C@@H]43)CC2)c1C [Example 276]
8.69

I'd like to know its pIC50. The molecule in question is Cc1ccc(N2CCN(C(=O)Cn3nc(C(=O)N4C[C@@H](C)O[C@@H](C)C4)c4c3CCC4)CC2)c(C)c1 [Example 50]
7.82

Reported pIC50, molecule Cc1cccc(N2CCN(C(=O)Cn3nc(C(=O)N4C[C@@H](C)O[C@@H](C)C4)c4c3CCC4)C3(CC3)C2)c1C [Example 391] : ____
8.30

Entry under review: Cc1cccc(N2CCN(C(=O)Cn3nc(C(=O)N4CCC(N5CCNC5=O)CC4)c4c3C[C@H]3C[C@@H]43)CC2)c1C [Example 253] . Reported pIC50?
8.82

I'd like to know its pIC50. The molecule in question is Cc1cccc(N2CCN(C(=O)Cn3nc(C(=O)N4CCC5(CC4)CNC(=O)N5C)c4c3C[C@H]3C[C@@H]43)CC2)c1C [Example 227]
8.66

Fill in: pIC50 of Cc1cccc(N2CCN(C(=O)Cn3nc(C(=O)N4CC[C@@H](N5CCC(O)CC5)[C@@H](F)C4)c4c3CC(F)(F)CC4)CC2)c1C (stereo in doubt) [Example 24] is ___
6.71

pIC50 lookup needed for Cc1cccc(N2CCN(C(=O)Cn3nc(C(=O)N4CC[C@H](O)[C@H](F)C4)c4c3C[C@H]3C[C@@H]43)[C@H]3CCC[C@@H]32)c1C (racemic) [Example 327] , thanks.
7.77

Quick check: pIC50 of Cc1cccc(N2CCN(C(=O)Cn3nc(C(=O)N4CC[C@@H](N)[C@@H](F)C4)c4c3CCC4)CC2)c1C [Example 214] ?
6.98

Given the molecule Cc1c(N2CCN(C(=O)Cn3nc(C(=O)N4CC[C@@H](O)[C@@H](F)C4)c4c3C[C@H]3C[C@@H]43)CC2)cccc1C(F)(F)F [Example 339] , what is its reported pIC50?
8.74
